target: human ether-à-go-go-related gene (hERG) potassium channel (human, UniProt Q12809); test: primary screen, population patch clamp on CHO cells stably expressing hERG; higher = less effect of the substance;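 also: peak tail current of the secondary pulse compared with the same well before compound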
Sequence (Q12809 whole entry, looked up): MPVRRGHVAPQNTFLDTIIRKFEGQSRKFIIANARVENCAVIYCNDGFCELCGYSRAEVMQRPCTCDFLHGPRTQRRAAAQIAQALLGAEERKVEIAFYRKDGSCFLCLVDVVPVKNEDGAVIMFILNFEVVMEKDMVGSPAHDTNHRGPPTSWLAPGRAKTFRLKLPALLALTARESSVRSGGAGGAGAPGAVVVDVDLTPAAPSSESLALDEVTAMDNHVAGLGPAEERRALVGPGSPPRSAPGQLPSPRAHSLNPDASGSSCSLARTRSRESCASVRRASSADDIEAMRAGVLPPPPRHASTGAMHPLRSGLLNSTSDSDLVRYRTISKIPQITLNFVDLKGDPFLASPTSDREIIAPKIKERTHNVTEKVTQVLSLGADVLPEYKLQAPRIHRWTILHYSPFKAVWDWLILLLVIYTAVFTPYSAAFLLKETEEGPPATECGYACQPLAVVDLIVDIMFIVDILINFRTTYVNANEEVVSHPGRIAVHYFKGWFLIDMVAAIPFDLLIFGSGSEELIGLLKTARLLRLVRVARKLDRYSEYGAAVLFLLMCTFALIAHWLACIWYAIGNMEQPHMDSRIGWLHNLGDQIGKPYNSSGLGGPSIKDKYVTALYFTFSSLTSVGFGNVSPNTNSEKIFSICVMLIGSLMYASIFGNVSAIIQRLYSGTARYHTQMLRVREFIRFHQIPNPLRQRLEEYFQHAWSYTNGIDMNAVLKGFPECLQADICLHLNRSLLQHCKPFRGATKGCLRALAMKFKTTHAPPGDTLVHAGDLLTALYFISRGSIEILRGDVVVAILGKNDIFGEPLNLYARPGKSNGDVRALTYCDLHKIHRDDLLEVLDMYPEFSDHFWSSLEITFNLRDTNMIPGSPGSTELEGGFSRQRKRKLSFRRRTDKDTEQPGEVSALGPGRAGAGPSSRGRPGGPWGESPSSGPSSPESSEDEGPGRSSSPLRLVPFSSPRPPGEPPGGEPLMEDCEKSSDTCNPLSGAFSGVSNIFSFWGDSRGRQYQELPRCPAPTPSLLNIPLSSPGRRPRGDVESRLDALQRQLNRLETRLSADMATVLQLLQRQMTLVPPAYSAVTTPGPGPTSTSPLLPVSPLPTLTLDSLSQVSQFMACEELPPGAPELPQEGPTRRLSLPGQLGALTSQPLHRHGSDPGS
Screen size: about 310,000 compounds; about 14,000 (4.5%) showed an effect of 50% or more. Effects have a minus sign here. For the sample, strong results were picked, then their nearest neighbours and some compounds at random.
Listed here are compounds together with their documented hERG current change (%, negative = inhibition) at 10uM.
Supply the numeric figure in %, leaving out any unit text.

| compound | unit | reportedMeasurement |
| --- | --- | --- |
| N/C(=N\OC(=O)c1ccccc1[N+](=O)[O-])c1cccnc1 | % | -2.9 |
| Cc1cccc(CCNC(=O)C2CCC(=O)N(Cc3ccc(Cl)cc3)C2)n1 (stereo not shown) | % | 5.05 |

Per the records, this compound ( "O=S(=O)(c1ccc(N2CCCCCC2)nc1)N1CCCC1" ) has hERG current change (%, negative = inhibition) at 10uM equal to 17.2

Per the records, this compound ( Cl.Clc1ccc(-c2ccc(CNCC3CCCO3)o2)cc1 (stereo not shown) ) has hERG current change (%, negative = inhibition) at 10uM equal to -62.4

Per the records, this compound ( O=C(NCCc1cccc(Cl)c1)C1CCC(=O)N(Cc2ccc(Cl)cc2)C1 (stereo not shown) ) has hERG current change (%, negative = inhibition) at 10uM equal to -52.3

Per the records, this compound ( Cc1ccccc1N(CC(=O)NC1CCCC1)C(=O)CS(=O)CC(=O)Nc1ccc2c(c1)OCO2 (stereo not shown) ) has hERG current change (%, negative = inhibition) at 10uM equal to -8.74

Per the records, this compound ( CC(NC(=O)c1cnccn1)c1ccc(S(N)(=O)=O)cc1 (stereo not shown) ) has hERG current change (%, negative = inhibition) at 10uM equal to -2.33

Per the records, this compound ( "Cc1ccc(NC(=O)CCN2C(=O)c3cccc4cccc(c34)C2=O)cc1" ) has hERG current change (%, negative = inhibition) at 10uM equal to 9.71

Per the records, this compound ( O=C(NCCc1ccccc1)C1CCC(=O)N(Cc2cccc(C(F)(F)F)c2)C1 (stereo not shown) ) has hERG current change (%, negative = inhibition) at 10uM equal to -14.2

Per the records, this compound ( CC(=O)C1=C(O)C(=O)N(Cc2cccnc2)C1c1ccc(C(C)C)cc1 (stereo not shown) ) has hERG current change (%, negative = inhibition) at 10uM equal to 17.1

====

target: human ether-à-go-go-related gene (hERG) potassium channel (human, UniProt Q12809); assay: primary screen, population patch clamp on CHO cells stably expressing hERG; higher = less effect of the substance;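 also: peak tail current of the secondary pulse compared with the same well before compound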
The whole screen tested about 310,000 compounds, of which about 14,000 (4.5%) showed an effect of 50% or more. Effects have a minus sign here. What follows is part of a selection rich in strong results, with near analogues and random picks from the rest.
Cut-off -10% on hERG current change (%, negative = inhibition) at 10uM, inclusive. At or above means criterion met; below means criterion not met.

Example entries begin here.
| compound | assignedClass |
| --- | --- |
| COc1ccc2nc(NC(C)=O)sc2c1 | criterion met |
| COc1ccc(C(=O)O/N=C(\N)Cc2ccc([N+](=O)[O-])cc2)c(OC)c1 | criterion not met |
| COc1cc(C(=O)O/N=C(\N)Cc2ccc([N+](=O)[O-])cc2)cc(OC)c1OC | criterion not met |
| O=C(NCC1CCCO1)C(c1ccco1)N(Cc1ccc(F)cc1)C(=O)CN1C(=O)c2ccccc2S1(=O)=O (stereo not drawn) | criterion met |
| CC(C)C(=O)Nc1cccc(-c2cnc3ccccc3n2)c1 | criterion met |

In: Is hERG current change (%, negative = inhibition) at 10uM at least -10%? Consider "CN(CC(=O)Nc1ccc(Cl)cc1)C(=O)COc1ncnc2ccccc12"
Out: criterion met

In: Is hERG current change (%, negative = inhibition) at 10uM at least -10%? Consider O=C(NCC1CCCO1)C(c1ccncc1)N(Cc1ccc(F)cc1)C(=O)CN1C(=O)c2ccccc2S1(=O)=O (stereo not drawn)
Out: criterion not met

In: Is hERG current change (%, negative = inhibition) at 10uM at least -10%? Consider "Cc1[nH]c2c(C(F)(F)F)cccc2c1CCN.Cl"
Out: criterion met

In: Is hERG current change (%, negative = inhibition) at 10uM at least -10%? Consider CC(C)CCNC(=O)C(c1ccncc1)N(C(=O)Cn1nnc(-c2ccc(F)cc2)n1)c1ccccc1F (stereo not drawn)
Out: criterion not met

In: Is hERG current change (%, negative = inhibition) at 10uM at least -10%? Consider COc1ccc(CN(C(=O)CN2C(=O)c3ccccc3S2(=O)=O)C(C(=O)NCC2CCCO2)c2ccncc2)cc1 (stereo not drawn)
Out: criterion not met

In: Is hERG current change (%, negative = inhibition) at 10uM at least -10%? Consider CCC(=O)N(c1nnc(SCC(=O)NN2C(=O)NC3(CCC(C)CC3)C2=O)s1)C1CC1 (stereo not drawn)
Out: criterion met

In: Is hERG current change (%, negative = inhibition) at 10uM at least -10%? Consider "Cc1ccc(C(=O)O/N=C(\N)Cc2ccc([N+](=O)[O-])cc2)c(Cl)c1"
Out: criterion not met

In: Is hERG current change (%, negative = inhibition) at 10uM at least -10%? Consider "N/C(=N\OC(=O)c1cccc(Br)c1)c1ccc([N+](=O)[O-])cc1"
Out: criterion met

In: Is hERG current change (%, negative = inhibition) at 10uM at least -10%? Consider "O=C(Nc1cc(S(=O)(=O)N2CCOCC2)ccc1N1CCCCC1)c1cc(-c2ccccn2)nc2ccccc12"
Out: criterion met

In: Is hERG current change (%, negative = inhibition) at 10uM at least -10%? Consider O=C(NCC1CCCO1)C(c1ccncc1)N(Cc1cccs1)C(=O)Cn1nnc(-c2ccc(F)cc2)n1 (stereo not drawn)
Out: criterion not met

In: Is hERG current change (%, negative = inhibition) at 10uM at least -10%? Consider "Cc1cccc(C(=O)O/N=C(\N)Cc2ccc([N+](=O)[O-])cc2)c1"
Out: criterion not met

In: Is hERG current change (%, negative = inhibition) at 10uM at least -10%? Consider O=C(NCC1CCCO1)C(c1ccc(F)cc1)N(Cc1ccc(F)cc1)C(=O)Cn1nnc(-c2cccs2)n1 (stereo not drawn)
Out: criterion not met

====

target: human ether-à-go-go-related gene (hERG) potassium channel (human, UniProt Q12809); experiment: primary screen, population patch clamp on CHO cells stably expressing hERG; higher = less effect of the substance;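 also: peak tail current of the secondary pulse compared with the same well before compound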
Among all 310,000 compounds or so, about 14,000 (4.5%) showed an effect of 50% or more. Effects have a minus sign here. This excerpt belongs to a sample that is enriched for strong results.
measuredMetric: hERG current change (%, negative = inhibition) at 10uM (%)
Supply the numeric figure in %, leaving out any unit text.

Consider the following illustrative entries.
| compound | reportedMeasurement |
| --- | --- |
| O=c1[nH]c(C2CCN(S(=O)(=O)c3ccc(C(F)(F)F)cc3)CC2)nc2c1nnn2Cc1ccccc1 | 8.98 |
| CC(Oc1ccc2c3c(c(=O)oc2c1)CCCC3)C(=O)NCCCn1ccnc1 (centres unmarked) | -2.45 |
| COc1ccc(CCNC(=O)[C@@H](NC(=O)N2CCn3c2nc2ccccc23)C(C)C)cc1OC | -14.3 |

Item "Cc1ccc(-c2nnc(N3CCC(C)CC3)c3ccccc23)cc1" ; assay system human ether-à-go-go-related gene (hERG) potassium channel (human, UniProt Q12809); hERG current change (%, negative = inhibition) at 10uM reported as 3.1

Item Cc1cc(=O)oc2cc(OC(C)C(=O)NCCCn3ccnc3)ccc12 (centres unmarked) ; assay system human ether-à-go-go-related gene (hERG) potassium channel (human, UniProt Q12809); hERG current change (%, negative = inhibition) at 10uM reported as 9.44

====

Listed here are compounds together with their documented hERG current change (%, negative = inhibition) at 10uM.
biological target: human ether-à-go-go-related gene (hERG) potassium channel (human, UniProt Q12809); test: primary screen, population patch clamp on CHO cells stably expressing hERG; higher = less effect of the substance;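 also: peak tail current of the secondary pulse compared with the same well before compound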
About 14,000 (4.5%) of roughly 310,000 compounds showed an effect of 50% or more. The effect is printed as a negative number. For the sample, strong results were picked, then their nearest neighbours and some compounds at random.

| compound | reportedMeasurement |
| --- | --- |
| CCOc1cccc(CN2CCCC(N3CCc4cc(OC)c(OC)cc4C3)C2)c1O (centres unmarked) | -39.3% |
| O=c1[nH]c(-c2ccccn2)nc2ccccc12 | -3.46% |
| COc1ccccc1CN1CCCC(N2CCN(c3ccc(F)cc3)CC2)C1 (centres unmarked) | -56.2% |
| COc1ccc(N2CCN(C3CCCN(Cc4ccccc4OCCO)C3)CC2)cc1 (centres unmarked) | -24.1% |

Per the records, this compound ( COc1ccccc1CN1CCCC(N2CCN(c3ccccc3OC)CC2)C1 (centres unmarked) ) has hERG current change (%, negative = inhibition) at 10uM equal to -11.9%

From: paper PMC4336329
